- tested.target: T1, Biotinylated human TSLP (human, biotinylated)
- T1 construct: also called hTSLP; thymic stromal lymphopoietin
- T1 sequence (chain, as listed by the source limits assumed): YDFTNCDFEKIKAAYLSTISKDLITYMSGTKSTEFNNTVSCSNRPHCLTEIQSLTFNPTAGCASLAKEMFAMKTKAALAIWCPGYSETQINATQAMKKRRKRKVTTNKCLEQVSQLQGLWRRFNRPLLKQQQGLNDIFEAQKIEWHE
- experiment.summary: SPR, biotinylated hTSLP on streptavidin chip; Example 158, Ac-(SEQ ID NO: 116)
recorded.metric: Kd (µM)
Numbers only, in µM.

Identify measured Kd associated with CQWLEDCWRGXC (not fully specified; N-term acetyl; CQWLEDCWRG[3-PyrA]C as printed; 3 Cys on TATA) [Example 158] 5.4
